# assay procedure: gradient 5% acetonitrile 3 min, to 50% in 2 min, to 85% in 15 min, held 3 min, 100 µL/min
# condition parameters: column: Zorbax Extend-C18 2.1 x 50 mm; eluents: water / acetonitrile, 0.1% formic acid
Listing: RP-LC retention time of selected compounds
Just the number please, in s, no unit attached.

CCN1CCC2(CC1)OC(=O)C(C)=C2C(=O)NCc1ccc(Cl)cc1 :: 643
Cc1cc(N2CCCC2)nc(N2CCN(C(=O)c3ccc(-c4ccccc4)cc3)CC2)n1 :: 813

### Prompt Entry CCOC(=O)c1cn(Cc2ccccc2C)c2nc(C)ccc2c1=O has what RP-LC retention time?
### Response 909

### Prompt Entry COC(=O)c1ccccc1S(=O)(=O)N1CCc2c(c(-c3nnc(-c4ccccc4)o3)nn2C)C1 has what RP-LC retention time?
### Response 907

### Prompt Entry COc1cccc(NC(=O)N2CCCC(Cn3cnc4cccnc43)C2)c1 (stereo not given) has what RP-LC retention time?
### Response 653
